Source of measurements: paper PMC13586308

Overview of reported α BRD4^BD2 (binding cooperativity factor) across a group of compounds:
Biological target: BRD4^BD2 (Homo sapiens)
Construct: to the isolated BD1 and BD2 domains of BRD2, BRD3 and BRD4
Assay: competitive fluorescence polarization assay, BRD4 BD2 -/+ presenter protein
Format: binding
Conditions: ratio of binding in absence or presence of FKBP12
# respond with the number and nothing more

These solved cases illustrate the format of a correct answer.
>  <compound>
Cc1sc2c(c1C)C(c1ccc(C#CCNC(=O)COCCn3cc(C4CN(Cc5ccccn5)C(=O)C5CCCC4N5S(=O)(=O)c4cc(Cl)cc(Cl)c4)nn3)cc1)=NC(CC(=O)OC(C)(C)C)c1nnc(C)n1-2 (centres unmarked)

>  <measured>
12

$$$$
>  <compound>
C=CC1CN(Cc2cn(CCOCCNC(=O)CC3N=C(c4ccc(Cl)cc4)c4c(sc(C)c4C)-n4c(C)nnc43)nn2)C(=O)C2CCCC1N2S(=O)(=O)c1cc(Cl)cc(Cl)c1 (centres unmarked)

>  <measured>
0.3

$$$$
>  <compound>
Cc1sc2c(c1C)C(c1ccc(Cl)cc1)=NC(CC(=O)N1CC(CN3CCC(Cn4cc(COCC5CN(Cc6ccccn6)C(=O)C6CCCC5N6S(=O)(=O)c5cc(Cl)cc(Cl)c5)nn4)CC3)C1)c1nnc(C)n1-2 (centres unmarked) [a12d]

>  <measured>
1.9

$$$$
>  <compound>
Cc1sc2c(c1C)C(c1ccc(Cl)cc1)=NC(CC(=O)NCCOCCOCCn1cc(C3CN(Cc4ccccn4)C(=O)C4CCCC3N4S(=O)(=O)c3cc(Cl)cc(Cl)c3)nn1)c1nnc(C)n1-2 (centres unmarked)

>  <measured>
0.5

$$$$

Give reported α BRD4^BD2 (binding cooperativity factor) value for Cc1sc2c(c1C)C(c1ccc(Cl)cc1)=NC(CC(=O)NCCOCCn1cc(COC(C)C3CN(Cc4ccccn4)C(=O)C4CCCC3N4S(=O)(=O)c3cc(Cl)cc(Cl)c3)nn1)c1nnc(C)n1-2 (centres unmarked) [a1e] 0.6

###

Molecular target: BRD4^BD1 (Homo sapiens)
Construct: to the isolated BD1 and BD2 domains of BRD2, BRD3 and BRD4
Experiment: competitive fluorescence polarization assay, BRD4 BD1 -/+ presenter protein
Assay type: binding
Conditions: 15 µM FKBP51FK1; read-out: Binding to BRD4BD1 + FKBP51FK1 Kd
observation type: pKd
Interpret pKd as the negative base-10 log of the concentration measured in mol/L.

In the examples that follow, each entry is paired with its recorded pKd.
>  <molecule>
Cc1sc2c(c1C)C(c1ccc(Cl)cc1)=NC(CC(=O)N1CCC3(CC1)CC(n1cc(C4CN(Cc5ccccn5)C(=O)C5CCCC4N5S(=O)(=O)c4cc(Cl)cc(Cl)c4)nn1)C3)c1nnc(C)n1-2 (stereo not shown) [a13c]

>  <measured>
6.06

$$$$
>  <molecule>
Cc1sc2c(c1C)C(c1ccc(Cl)cc1)=NC(CC(=O)NCCOCCn1cc(COCC3CN(C(C)c4ccccn4)C(=O)C4CCCC3N4S(=O)(=O)c3cc(Cl)cc(Cl)c3)nn1)c1nnc(C)n1-2 (stereo not shown)

>  <measured>
6.17

$$$$
>  <molecule>
Cc1sc2c(c1C)C(c1ccc(C#CCNC(=O)COCCn3cc(C4CN(Cc5ccccn5)C(=O)C5CCCC4N5S(=O)(=O)c4cc(Cl)cc(Cl)c4)nn3)cc1)=NC(CC(=O)OC(C)(C)C)c1nnc(C)n1-2 (stereo not shown)

>  <measured>
7.30

$$$$

// next item, pKd requested
Could you please provide reported pKd for Cc1sc2c(c1C)C(c1ccc(Cl)cc1)=NC(CC(=O)NCCOCCn1cc(COCC3CN(Cc4ccccn4)C(=O)C4CCCC3N4S(=O)(=O)c3cc(Cl)cc(Cl)c3)nn1)c1nnc(C)n1-2 (stereo not shown) ? Thanks! 6.30
